target: Human TRPML1 (Homo sapiens, UniProt Q9GZU1); assay: Fluorescent TRPML1 assay (Fluo4 calcium fluorescence, HEK-293 Trex cells); conditions: HEK-293 Trex cells expressing surface-directed hTRPML1, Fluo4 fluorescence
Sequence (Q9GZU1 whole entry L15A/L16A/L577A/L578A, form open): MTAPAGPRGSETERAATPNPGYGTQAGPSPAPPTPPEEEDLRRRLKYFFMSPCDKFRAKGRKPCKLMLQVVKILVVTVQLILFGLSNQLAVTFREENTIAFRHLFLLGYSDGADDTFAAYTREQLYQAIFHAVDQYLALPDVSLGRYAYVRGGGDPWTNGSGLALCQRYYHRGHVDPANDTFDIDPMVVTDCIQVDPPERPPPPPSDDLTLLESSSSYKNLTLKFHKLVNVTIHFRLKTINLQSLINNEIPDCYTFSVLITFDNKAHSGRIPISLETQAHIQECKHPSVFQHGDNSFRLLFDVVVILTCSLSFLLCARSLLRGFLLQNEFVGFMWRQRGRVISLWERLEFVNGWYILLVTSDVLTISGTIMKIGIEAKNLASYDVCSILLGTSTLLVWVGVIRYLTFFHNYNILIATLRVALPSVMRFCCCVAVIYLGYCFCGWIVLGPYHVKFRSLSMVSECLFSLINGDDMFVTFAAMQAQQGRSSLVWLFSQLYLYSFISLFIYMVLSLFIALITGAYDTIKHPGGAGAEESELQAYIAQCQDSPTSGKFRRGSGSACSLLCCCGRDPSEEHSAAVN
propertyMeasured: EC50

See these solved cases before continuing.
| cpdSmiles | EC50 |
| --- | --- |
| COC(C)(C)C(=O)N1C[C@H](C)N(c2ncnc3c2c(-c2ccccc2F)cn3-c2cccc(F)c2)C[C@H]1C | < 100 nM |
| C[C@@H]1CN(c2ncnc3c2c(-c2ccccc2F)cn3-c2cccc(C#N)c2)[C@@H](C)CN1C(=O)C(C)(C)O | 100 to 500 nM |
| C[C@@H]1CN(c2ncnc3c2c(-c2ccccc2F)cn3-c2cc(F)cc(F)c2)[C@@H](C)CN1C(=O)C(C)(C)O | 500 to 2000 nM |

// query Check the records and state EC50 for C[C@@H]1CN(c2ncnc3c2c(-c2ccccc2F)cn3-c2cccc(Cl)c2)[C@@H](C)CN1C(=O)C(C)(C)O
// result 100 to 500 nM

// query Tell me measured EC50 for C[C@@H]1CN(c2ncnc3c2c(-c2ccccc2)cn3-c2cccc(C#N)c2)[C@@H](C)CN1C(=O)C(C)(C)O please.
// result 100 to 500 nM

---

molecular target: Human TRPML2 (Homo sapiens, UniProt Q8IZK6); experiment: Fluorescent TRPML2 assay (as for TRPML1); conditions: as TRPML1 assay with TRPML2 subtype
Sequence (Q8IZK6 whole entry): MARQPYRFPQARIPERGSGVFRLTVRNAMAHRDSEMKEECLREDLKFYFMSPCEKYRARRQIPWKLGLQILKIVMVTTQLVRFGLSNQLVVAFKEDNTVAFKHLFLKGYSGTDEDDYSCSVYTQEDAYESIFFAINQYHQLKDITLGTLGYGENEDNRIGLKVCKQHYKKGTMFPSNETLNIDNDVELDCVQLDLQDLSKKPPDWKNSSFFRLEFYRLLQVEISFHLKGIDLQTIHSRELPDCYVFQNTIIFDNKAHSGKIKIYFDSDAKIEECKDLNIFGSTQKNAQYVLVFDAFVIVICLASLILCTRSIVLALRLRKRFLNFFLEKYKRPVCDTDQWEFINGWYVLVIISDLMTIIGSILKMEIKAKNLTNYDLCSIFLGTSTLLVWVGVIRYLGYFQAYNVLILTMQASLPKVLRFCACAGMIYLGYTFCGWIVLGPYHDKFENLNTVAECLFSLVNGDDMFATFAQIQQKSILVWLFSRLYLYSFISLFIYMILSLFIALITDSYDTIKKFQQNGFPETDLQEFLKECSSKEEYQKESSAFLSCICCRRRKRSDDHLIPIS
pEC50: −log10 of the molar value.
propertyMeasured: pEC50

// query Please indicate pEC50 recorded for COC(C)(C)C(=O)N1C[C@H](C)N(c2ncnc3c2c(-c2ccccc2F)cn3-c2cccc(F)c2)C[C@H]1C
// result 6.30 to 7.00

---

biological target: Human TRPML3 (Homo sapiens, UniProt Q8TDD5); construct: expressed in transfected cells; experiment: Fluorescent TRPML3 assay (as for TRPML1); format: cell-based; conditions: as TRPML1 assay with TRPML3 subtype
Sequence (Q8TDD5 whole entry): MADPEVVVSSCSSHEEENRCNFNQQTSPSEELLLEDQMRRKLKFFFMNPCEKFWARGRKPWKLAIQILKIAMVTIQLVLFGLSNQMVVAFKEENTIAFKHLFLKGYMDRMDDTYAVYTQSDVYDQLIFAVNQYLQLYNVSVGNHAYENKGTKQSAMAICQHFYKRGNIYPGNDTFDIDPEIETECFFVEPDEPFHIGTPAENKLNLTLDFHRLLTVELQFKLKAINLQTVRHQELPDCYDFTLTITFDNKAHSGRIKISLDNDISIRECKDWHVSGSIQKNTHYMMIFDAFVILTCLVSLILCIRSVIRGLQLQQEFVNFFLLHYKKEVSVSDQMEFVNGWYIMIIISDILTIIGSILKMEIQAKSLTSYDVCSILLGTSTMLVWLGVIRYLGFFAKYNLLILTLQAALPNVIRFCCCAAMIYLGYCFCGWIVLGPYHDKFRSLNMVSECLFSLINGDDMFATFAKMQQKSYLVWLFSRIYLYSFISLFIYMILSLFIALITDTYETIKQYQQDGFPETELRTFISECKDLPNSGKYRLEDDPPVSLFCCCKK
pEC50: −log10 of the molar value.
propertyMeasured: pEC50

| cpdSmiles | pEC50 |
| --- | --- |
| C[C@@H]1CN(c2ncnc3c2c(-c2ccccc2F)cn3-c2cccc(Cl)c2)[C@@H](C)CN1C(=O)C(C)(C)O | 5.70 to 6.30 |
| C[C@@H]1CN(c2ncnc3c2c(-c2ccccc2F)cn3-c2cc(F)cc(F)c2)[C@@H](C)CN1C(=O)C(C)(C)O | < 5.70 |
| COC(C)(C)C(=O)N1C[C@H](C)N(c2ncnc3c2c(-c2ccccc2F)cn3-c2cccc(F)c2)C[C@H]1C | > 7.00 |
| C[C@@H]1CN(c2ncnc3c2c(-c2ccccc2F)cn3-c2cccc(C#N)c2)[C@@H](C)CN1C(=O)C(C)(C)O | < 5.70 |

For the next question, use this compound.
// query Provide Human TRPML3 (Homo sapiens, UniProt Q8TDD5) pEC50 reading for C[C@@H]1CN(c2ncnc3c2c(-c2ccccc2)cn3-c2cccc(C#N)c2)[C@@H](C)CN1C(=O)C(C)(C)O .
// result < 5.70
